assay: isobaric coefficient of expansion; conditions: 308.15 K; 45000 kPa; Liquid; DSC
quantityKind: isobaric coefficient of expansion

Reference set (5 entries):
molecule: CCC#N [propanenitrile]
isobaric coefficient of expansion: 0.00104 1/K
--
molecule: N#Cc1ccccc1 [benzonitrile]
isobaric coefficient of expansion: 0.000755 1/K
--
molecule: O=[N+]([O-])c1ccccc1 [nitrobenzene]
isobaric coefficient of expansion: 0.000728 1/K
--
molecule: CC[N+](=O)[O-] [nitroethane]
isobaric coefficient of expansion: 0.000977 1/K
--
molecule: CCC[N+](=O)[O-] [1-nitropropane]
isobaric coefficient of expansion: 0.000906 1/K

Now turn to the next molecule.
Item: C[N+](=O)[O-] [nitromethane] | isobaric coefficient of expansion: 0.00103 1/K

###

Reported isobaric coefficient of expansion is given for each of the following compounds.
experiment: isobaric coefficient of expansion; details: 318.15 K; 40000 kPa; Liquid; DSC

chemicalString: CCC[N+](=O)[O-]
quantityKind: isobaric coefficient of expansion
reportedResult: 0.000927 1/K
//
chemicalString: O=[N+]([O-])c1ccccc1
quantityKind: isobaric coefficient of expansion
reportedResult: 0.000737 1/K
//
chemicalString: CC[N+](=O)[O-]
quantityKind: isobaric coefficient of expansion
reportedResult: 0.000999 1/K
//
chemicalString: N#Cc1ccccc1
quantityKind: isobaric coefficient of expansion
reportedResult: 0.000764 1/K
//
chemicalString: C[N+](=O)[O-]
quantityKind: isobaric coefficient of expansion
reportedResult: 0.00106 1/K

Now turn to the next compound.
Item: CCC#N | isobaric coefficient of expansion: 0.00106 1/K

###

Reported isobaric coefficient of expansion is given for each of the following compounds.
assay: isobaric coefficient of expansion; settings: 298.15 K; 50000 kPa; Liquid; DSC

chemicalString: O=[N+]([O-])c1ccccc1
reportedResult: 0.000722 1/K

Item: CCC[N+](=O)[O-] | isobaric coefficient of expansion: 0.000889 1/K

Item: C[N+](=O)[O-] | isobaric coefficient of expansion: 0.00101 1/K

Item: CC[N+](=O)[O-] | isobaric coefficient of expansion: 0.00096 1/K

###

experiment: isobaric coefficient of expansion; conditions: 278.15 K; 55000 kPa; Liquid; DSC
Reported isobaric coefficient of expansion is given for each of the following molecules.

Reference set (2 entries):
chemicalString: CC[N+](=O)[O-]
isobaric coefficient of expansion: 0.00094 1/K
--
chemicalString: C[N+](=O)[O-]
isobaric coefficient of expansion: 0.000986 1/K

Now turn to the next molecule.
Item: CCC[N+](=O)[O-] | isobaric coefficient of expansion: 0.000871 1/K
